The entries below come with measured growth inhibition values attached.
# Tested on: Plasmodium falciparum NF54
# EXPERIMENTAL DETAILS: growth inhibition relative to untreated control; higher = more inhibition
# STUDY CONDITIONS: 1 µM; minimal medium (MM); 72 h
Please respond with the number in % and leave the unit unwritten.

Request: Kindly state the measured growth inhibition obtained for "COc1cccc(NC(=O)c2c(NC(=O)c3cccnc3)sc3c2CCC3)c1" with Plasmodium falciparum NF54.
Response: 9.66

Request: Kindly state the measured growth inhibition obtained for "Cc1cc(Nc2ccc(C(F)(F)F)cc2)n2ccnc2n1" with Plasmodium falciparum NF54.
Response: 94.6

Request: Kindly state the measured growth inhibition obtained for c1ccc(-c2[nH]c3ccccc3c2C(c2ccccn2)N2CCCC2)cc1 (stereo not given) with Plasmodium falciparum NF54.
Response: 5.9

Request: Kindly state the measured growth inhibition obtained for "O=C(CN1CCOCC1)Nc1ccc2ncnc(Nc3ccc(OCc4cccc(F)c4)c(Cl)c3)c2c1" with Plasmodium falciparum NF54.
Response: 9.8

Request: Kindly state the measured growth inhibition obtained for "Nc1ccc(C(=O)Nc2ccc(-c3nc4ccccc4o3)cc2)cc1" with Plasmodium falciparum NF54.
Response: 18.2

Request: Kindly state the measured growth inhibition obtained for "Cc1cc(C)n(-c2ccc(NC(=O)C3CCN(Cc4cnc(C)s4)CC3)cc2)n1" with Plasmodium falciparum NF54.
Response: 27.5

Request: Kindly state the measured growth inhibition obtained for "CN1CCN(c2nccc3nc(-c4ccc(F)c(F)c4)[nH]c23)CC1" with Plasmodium falciparum NF54.
Response: 66.9

Request: Kindly state the measured growth inhibition obtained for CCOc1ccccc1NC(C)C(=O)Nc1cc(C(F)(F)F)ccc1N1CCOCC1 (stereo not given) with Plasmodium falciparum NF54.
Response: 64.5

Request: Kindly state the measured growth inhibition obtained for "Cc1nc(-c2ccccn2)nc(N(C)CCc2ccccc2)c1Cl" with Plasmodium falciparum NF54.
Response: 23.4

Request: Kindly state the measured growth inhibition obtained for "O=C(Nc1cccnc1)c1c(O)c2cccc3c2n(c1=O)CC3" with Plasmodium falciparum NF54.
Response: 21.1

Request: Kindly state the measured growth inhibition obtained for "COc1ccc(C2=NCCN2)cc1-c1cn(-c2cccc(C3=NCCN3)c2)nn1" with Plasmodium falciparum NF54.
Response: 80.4

Request: Kindly state the measured growth inhibition obtained for "O=C(Nc1nnc(-c2ccc(Cl)cc2)o1)c1cccc(C(F)(F)F)c1" with Plasmodium falciparum NF54.
Response: 33

Request: Kindly state the measured growth inhibition obtained for "COc1ccc(-c2cnc3cnc(-c4cccc(OC(C)C)c4)cn23)cc1" with Plasmodium falciparum NF54.
Response: 34.1

Request: Kindly state the measured growth inhibition obtained for "Cc1cccc(NC(=O)c2cc(S(=O)(=O)N(C)c3ccc(F)cc3)ccc2Cl)n1" with Plasmodium falciparum NF54.
Response: 82.9

Request: Kindly state the measured growth inhibition obtained for "CC(C)(C)c1cc(C(=O)Nc2cccnc2)cc(C(=O)Nc2cccnc2)c1" with Plasmodium falciparum NF54.
Response: 94.2

Request: Kindly state the measured growth inhibition obtained for Cc1noc(C)c1C(=O)N1CCCC(c2[nH]c3c(C)cccc3c2-c2ccncc2)C1 (stereo not given) with Plasmodium falciparum NF54.
Response: 95.3

Request: Kindly state the measured growth inhibition obtained for CC(C)C(Oc1cccc2ccccc12)C(=O)O (stereo not given) with Plasmodium falciparum NF54.
Response: 13.6
